Target: T1, monkey CTLA-4 (Example 3 ELISA, construct not stated) (cynomolgus monkey, UniProt G7PL88 36-161)
T1 construct: also called cyno CTLA-4
T1 sequence: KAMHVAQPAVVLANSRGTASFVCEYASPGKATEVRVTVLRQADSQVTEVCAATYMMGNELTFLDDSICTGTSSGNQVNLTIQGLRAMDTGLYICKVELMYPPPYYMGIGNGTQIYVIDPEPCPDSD
Assay: ELISA, antibody titrated on cyno CTLA-4, OD450
PROPERTY_MEASURED: EC50 (read off the curve)

Solved entries (count: 3):
BINDER	PROPERTY_MEASURED	EXPERIMENTAL_RESULT
W3162-1.146.19 xAb.IgG1 (antibody, V domains shown, Chimeric: rat variable regions fused with constant region of human antibody (label xAb.IgG1)) VH: EVQLQESGPGLVKPSQSLSLTCSVTYHTITSGYDWTWIRKFPGNQMEWMGYISYSGNTNYNPSLKSRISITRDTSKNQFFLHLNSVTSEDTATYYCASMMVPHYYVMDAWGQGASVTVSS VL: DVVLTQTPPTSSATIGQSVSISCRSSQSLLNSDGNTYLYWYLQRPSQSPQLLIYLVSKLGSGVPNRFSGSGSGTDFTLKISGVEAEDLGLYYCVQGTHDPWTFGGGTKLELK	EC50 (read off the curve)	~0.1 nM
W3162-1.154.8 xAb.IgG1 (antibody, V domains shown, Chimeric: rat variable regions fused with constant region of human antibody (label xAb.IgG1)) VH: EVQLQQSGPEAGRPGSSVKISCKASGYTFTNYFMNWVKQSPGQGLEWIGRVDPENGRADYAEKFKKKATLTADTTSNTAYIHLSSLTSEDTATYFCARRAMDNYGFAYWGQGTLVTVSS VL: EIMLTQSPTIMAASLGEKITITCSANSSLSYMYWFQQKSGASPKLWVHGTSNLASGVPDRFSGSGSGTSYYLTINTMEAEDAATYFCHHWSNTQWTFGGGTKLELK	EC50 (read off the curve)	~0.08 nM
W3162-1.145.10 xAb.IgG1 (antibody, V domains shown, Chimeric: rat variable regions fused with constant region of human antibody (label xAb.IgG1)) VH: EVQLVESGGGLVQPGRSLKLSCAASDLTFSNYDMAWVRQTPTKGLEWVASISPNGGNTYYRDSVKGRFTVSRDNAKNSLYLQMDSLRSEDTATYYCARHLWFAYWGQGTLVTVSS VL: DIQMTQSPSSMSASLGDRVTISCQASQDIGSNLIWFQQKPGKSPRPMIYYATHLADGVPSRFSGSRSGSDYSLTISSLESEDVADYHCLQYKQYPRTFGGGTKLELK	EC50 (read off the curve)	~0.1 nM

Read the next record carefully.
Q: State its EC50 (read off the curve) for this binder: W3162-1.101.2 xAb.IgG1 (antibody, V domains shown, Chimeric: rat variable regions fused with constant region of human antibody (label xAb.IgG1)) VH: EEQLVESGGGLVQPGKSLKLSCSASGFTFRSSAMHWIRQPPGKGLDWVAFISSGGDTAYADAVKGRFIVSRDNAENTLFLQLNSLKSEDTAIYYCVRMERIPTWGQGVMVTVSS VL: DIVLTQSPVLAVSLGQRATISCRASQSVSISSINLIHWYQQRPGQQPKLLIYRTSNLASGIPARFSGSGSGTDFTLSIDPVQADDVADYYCQQSRESPLTFGSGTKLEIK
Ans: ~0.1 nM
